These measurements were taken from patent US11840574B2.

Ka(1/Ms) reference
Molecular target: Human DR5 (Homo sapiens, UniProt O14763)
Test: Binding affinity of antibody to human DR5 (BIAcore, CM5 chip)
Conditions: association rate, Human DR5, 1:1 Langmuir binding model
Method: In order to measure affinity, human DR5 was coupled to carboxylated dextran biosensor chips (CM5, GE) according to the manufacturer's instruction. Association and dissociation rates were assessed by injecting IgG proteins that were 2-fold serially diluted to 5 nM, 2.5 nM, 1.25 nM, 0.625 nM, 0.313 nM, and 0.156 nM. […]

Please review the following examples before continuing.
{"molecule": "DA31: humanized or deimmunized variant of parental clone D0; CDRs SEQ ID NO 1, 2, 7 / 4, 10, 13 (antibody, V domains shown) VH: AVTLDESGGGLQTPGGGLSLVCKGSGFTFSSFNMLWVRQAPGKGLEWVAGIGKSDRYTGYGSAVKGRATISRDDGQSTARLQMNSLRAEDTGTYYCVKDAGSGCGSGGWTGACIDTWGHGTEVIVSS VL: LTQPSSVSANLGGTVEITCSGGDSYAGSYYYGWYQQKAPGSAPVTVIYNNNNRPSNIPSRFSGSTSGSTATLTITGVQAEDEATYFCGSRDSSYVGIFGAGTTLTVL", "Ka(1/Ms)": "1.24 × 10^06 1/Ms"}
{"molecule": "DA23: humanized or deimmunized variant of parental clone D0; CDRs SEQ ID NO 1, 2, 9 / 4, 10, 13 (antibody, V domains shown) VH: EVQLVESGGGLVQPGGSLRLSCAASGFTFSSFNMLWVRQAPGKGLEWVAGIGKSDRYTGYGSAVKGRFTISRDDSKSTVYLQMNSLRAEDTAVYYCVRDAGSPCGKGGWTGACIDTWGQGTLVTVSS VL: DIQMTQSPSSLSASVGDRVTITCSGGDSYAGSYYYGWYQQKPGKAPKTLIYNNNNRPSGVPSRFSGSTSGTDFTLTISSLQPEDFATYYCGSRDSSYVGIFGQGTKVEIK", "Ka(1/Ms)": "6.96 × 10^05 1/Ms"}
{"molecule": "DA17: humanized or deimmunized variant of parental clone D0; CDRs SEQ ID NO 1, 2, 7 / 4, 12, 13 (antibody, V domains shown) VH: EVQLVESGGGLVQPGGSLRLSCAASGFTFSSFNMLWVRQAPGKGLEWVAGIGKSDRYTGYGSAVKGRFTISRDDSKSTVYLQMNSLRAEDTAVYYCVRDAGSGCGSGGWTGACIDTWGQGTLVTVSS VL: DIQMTQSPSSLSASVGDRVTITCSGGDSYAGSYYYGWYQQKPGKAPKTLIYNNNNKAKGVPSRFSGSRSGTDFTLTISSLQPEDFATYYCGSRDSSYVGIFGQGTKVEIK", "Ka(1/Ms)": "2.54 × 10^06 1/Ms"}

input: Please give the measured Ka(1/Ms) for this molecule: DA13: humanized or deimmunized variant of parental clone D0; CDRs SEQ ID NO 1, 2, 7 / 4, 10, 14 (antibody, V domains shown) VH: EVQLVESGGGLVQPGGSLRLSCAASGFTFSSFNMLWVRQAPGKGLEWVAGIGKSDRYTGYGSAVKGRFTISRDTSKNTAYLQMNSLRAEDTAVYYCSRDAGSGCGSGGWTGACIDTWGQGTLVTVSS VL: DIQMTQSPSSLSASVGDRVTITCSGGDSYAGSYYYGWYQQKPGKAPKTLIYNNNNRPSGVPSRFSGSRSGTDFTLTISSLQPEDFATYYCGSRDSAGMGAFGQGTKVEIK
output: 2.62 × 10^06 1/Ms
